Experiment: Viability of HL-60 cells (trypan dye exclusion)
Format: cell-based, human
Details: human, HL-60 cells; Table 2; mean ± SD, n = 5
MEASURED METRIC: viability at 1 μmol/L (%)
Answer in %, number only, no unit symbol.

Incoming: // returns reported viability at 1 μmol/L for input CC1=C(/C=C/C(C)=C/C=C/C(C)=C/C(=O)O)C(C)(C)CCC1 [RA, all-trans retinoic acid]
Outgoing: 82.6
